All values here come from ChEMBL document CHEMBL4706569.

Entries annotated with measured IC50
Assay: Dark toxicity in human MDA-MB-231 cells assessed as reduction in cell viability by MTT assay
Assay type: cell-based
# unit: µM | format: bare number

Oc1ccccc1-c1c2nc(c(-c3c(F)c(F)c(F)c(F)c3F)c3ccc([nH]3)c3ccc([nH]3)c(-c3c(F)c(F)c(F)c(F)c3F)c3ccc1[nH]3)C=C2    50.8

Read the next record carefully.
Recorded IC50 of Oc1cccc(-c2c3nc(c(-c4cccc(O)c4)c4ccc([nH]4)c(-c4cccc(O)c4)c4nc(c(-c5cccc(O)c5)c5ccc2[nH]5)CC4)C=C3)c1 , please. 33.4

----------
Test: Phototoxicity index, ratio of IC50 for cytotoxicity against HUVEC measured under dark condition to IC50 for phototoxicity against HUVEC upon LED light irradiation
Conditions: human, read-out: Ratio IC50
Measured Parameter: selectivity ratio

Observe how each entry below is paired with its result.
Oc1ccc(-c2c3nc(c(-c4c(F)c(F)c(F)c(F)c4F)c4ccc([nH]4)c4ccc([nH]4)c(-c4c(F)c(F)c(F)c(F)c4F)c4ccc2[nH]4)C=C3)cc1    > 10.9
Oc1ccccc1-c1c2nc(c(-c3c(F)c(F)c(F)c(F)c3F)c3ccc([nH]3)c3ccc([nH]3)c(-c3c(F)c(F)c(F)c(F)c3F)c3ccc1[nH]3)C=C2    > 21.1
Oc1cccc(-c2c3nc(c(-c4cccc(O)c4)c4ccc([nH]4)c(-c4cccc(O)c4)c4nc(c(-c5cccc(O)c5)c5ccc2[nH]5)CC4)C=C3)c1 [TEMOPORFIN]    > 66.7

Recorded selectivity ratio of Oc1cccc(-c2c3nc(c(-c4c(F)c(F)c(F)c(F)c4F)c4ccc([nH]4)c4ccc([nH]4)c(-c4c(F)c(F)c(F)c(F)c4F)c4ccc2[nH]4)C=C3)c1 , please. > 112

----------
Assay: Absorption property of the compound in DMF assessed as Q band molar extinction coefficient at 1 uM by UV-visible spectrophotometric method
Format: physicochemical
Measured Parameter: Activity (log)
# unit: log | format: bare number

Oc1ccccc1-c1c2nc(c(-c3c(F)c(F)c(F)c(F)c3F)c3ccc([nH]3)c3ccc([nH]3)c(-c3c(F)c(F)c(F)c(F)c3F)c3ccc1[nH]3)C=C2    4.57
Oc1cccc(-c2c3nc(c(-c4c(F)c(F)c(F)c(F)c4F)c4ccc([nH]4)c4ccc([nH]4)c(-c4c(F)c(F)c(F)c(F)c4F)c4ccc2[nH]4)C=C3)c1    4.61

Read the next record carefully.
Recorded Activity of Oc1ccc(-c2c3nc(c(-c4c(F)c(F)c(F)c(F)c4F)c4ccc([nH]4)c4ccc([nH]4)c(-c4c(F)c(F)c(F)c(F)c4F)c4ccc2[nH]4)C=C3)cc1 , please. 4.62

----------
Experiment: Dark toxicity in mouse 4T1 cells assessed as reduction in cell viability by MTT assay
Assay type: cell-based
pIC50: −log10 of the molar value.
Entries annotated with measured pIC50

Observe how each entry below is paired with its result.
Oc1ccccc1-c1c2nc(c(-c3c(F)c(F)c(F)c(F)c3F)c3ccc([nH]3)c3ccc([nH]3)c(-c3c(F)c(F)c(F)c(F)c3F)c3ccc1[nH]3)C=C2    < 4.00
Oc1cccc(-c2c3nc(c(-c4c(F)c(F)c(F)c(F)c4F)c4ccc([nH]4)c4ccc([nH]4)c(-c4c(F)c(F)c(F)c(F)c4F)c4ccc2[nH]4)C=C3)c1    < 4.00
Oc1cccc(-c2c3nc(c(-c4cccc(O)c4)c4ccc([nH]4)c(-c4cccc(O)c4)c4nc(c(-c5cccc(O)c5)c5ccc2[nH]5)CC4)C=C3)c1    4.42

Read the next record carefully.
Recorded pIC50 of Oc1ccc(-c2c3nc(c(-c4c(F)c(F)c(F)c(F)c4F)c4ccc([nH]4)c4ccc([nH]4)c(-c4c(F)c(F)c(F)c(F)c4F)c4ccc2[nH]4)C=C3)cc1 , please. < 4.00

----------
Entries annotated with measured pIC50
System: HUVEC
Assay: Phototoxicity against HUVEC assessed as reduction in cell viability preincubated for 4 hrs followed by irradiation with 0.3 W/cm2 of 625 +/- 2 nanometer LED light for 1 hr and measured after 42 hrs by MTT assay
Type: cell-based
Conditions: Homo sapiens, light or radiation study
Note on pIC50: it is the negative log10 of concentration, concentration in mol/L.

Observe how each entry below is paired with its result.
Oc1ccccc1-c1c2nc(c(-c3c(F)c(F)c(F)c(F)c3F)c3ccc([nH]3)c3ccc([nH]3)c(-c3c(F)c(F)c(F)c(F)c3F)c3ccc1[nH]3)C=C2    5.32
Oc1ccc(-c2c3nc(c(-c4c(F)c(F)c(F)c(F)c4F)c4ccc([nH]4)c4ccc([nH]4)c(-c4c(F)c(F)c(F)c(F)c4F)c4ccc2[nH]4)C=C3)cc1    5.03
Oc1cccc(-c2c3nc(c(-c4cccc(O)c4)c4ccc([nH]4)c(-c4cccc(O)c4)c4nc(c(-c5cccc(O)c5)c5ccc2[nH]5)CC4)C=C3)c1 [TEMOPORFIN]    5.82

Read the next record carefully.
Recorded pIC50 of Oc1cccc(-c2c3nc(c(-c4c(F)c(F)c(F)c(F)c4F)c4ccc([nH]4)c4ccc([nH]4)c(-c4c(F)c(F)c(F)c(F)c4F)c4ccc2[nH]4)C=C3)c1 , please. 6.05

----------
Entries annotated with measured Activity
Assay: Absorption property of the compound in DMF assessed as soret band molar attenuation coefficient at 1 uM by UV-visible spectrophotometric method
Assay type: physicochemical
Please report the result as a number followed by the unit.

Observe how each entry below is paired with its result.
Oc1ccc(-c2c3nc(c(-c4c(F)c(F)c(F)c(F)c4F)c4ccc([nH]4)c4ccc([nH]4)c(-c4c(F)c(F)c(F)c(F)c4F)c4ccc2[nH]4)C=C3)cc1    5.09 log
Oc1cccc(-c2c3nc(c(-c4c(F)c(F)c(F)c(F)c4F)c4ccc([nH]4)c4ccc([nH]4)c(-c4c(F)c(F)c(F)c(F)c4F)c4ccc2[nH]4)C=C3)c1    5.1 log

Read the next record carefully.
Recorded Activity of Oc1ccccc1-c1c2nc(c(-c3c(F)c(F)c(F)c(F)c3F)c3ccc([nH]3)c3ccc([nH]3)c(-c3c(F)c(F)c(F)c(F)c3F)c3ccc1[nH]3)C=C2 , please. 5.08 log
